TEST_SYSTEM: human CD3E&G complex (Sino Biological Inc., CT041-H0305H) (human) (UniProt P07766)
Sequence (P07766 23-126, chain 1 of 2): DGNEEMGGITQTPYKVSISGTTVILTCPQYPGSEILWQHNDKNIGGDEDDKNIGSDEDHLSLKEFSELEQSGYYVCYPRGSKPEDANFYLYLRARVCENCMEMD
Sequence (P09693 23-116, chain 2 of 2, further chain): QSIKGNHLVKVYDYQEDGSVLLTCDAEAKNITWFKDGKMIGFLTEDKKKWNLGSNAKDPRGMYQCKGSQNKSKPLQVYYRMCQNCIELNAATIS
PROTOCOL: SPR, antigen on chip
pKd: −log10 of the molar value.
PROPERTY: pKd

| BINDER | RESULT |
| --- | --- |
| SGN70-sp34.101LH (bispecific antibody, part only; not given: anti-CD70 Fab arm and Fc, not shown: another chain or arm of the molecule; a dimerising Fc or GST; large carriers) scFv: QAVVTQEPSLTVSPGGTVTLTCRSSTGAVTTSNYANWVQQKPGQAPRGLIGGTNKRAPGVPARFSGSLLGDKAALTLLGAQPEDEAEYYCALWYSNLWVFGQGTKLTVLGGGGSGGGGSGGGGSGGGGSEVQLVESGGGLVQPGGSLKLSCAASGFTFNTYAMNWVRQASGKGLEWVGRIRSKYNNYATYYADSVKDRFTISRDDSKSTLYLQMNSLKTEDTAVYYCARHGNFGQSAASWFAYWGQGTTVTVSS | 6.39 |
| SGN70-sp34.97HL (bispecific antibody, part only; not given: anti-CD70 Fab arm and Fc, not shown: another chain or arm of the molecule; a dimerising Fc or GST) scFv: EVQLVESGGGLVQPGGSLKLSCAASGFTFNTYAMNWVRQASGKGLEWVGRIRSKAGGYATYYADSVKDRFTISRDDSKSTLYLQMNSLKTEDTAVYYCARHGNFGQSYVSWFAYWGQGTTVTVSSGGGGSGGGGSGGGGSGGGGSQAVVTQEPSLTVSPGGTVTLTCRSSTGAVTTSNYANWVQQKPGQAPRGLIGGTNKRAPGVPARFSGSLLGDKAALTLLGAQPEDEAEYYCALWYSNLWVFGQGTKLTVL | 5.28 |
| SGN70-sp34.87LH (bispecific antibody, part only; not given: anti-CD70 Fab arm and Fc, not shown: another chain or arm of the molecule; a dimerising Fc or GST) scFv: QAVVTQEPSLTVSPGGTVTLTCRSSTGAVTTSNYANWVQQKPGQAPRGLIGGTNKRAPGVPARFSGSLLGDKAALTLLGAQPEDEAEYYCALWYSNLWVFGQGTKLTVLGGGGSGGGGSGGGGSGGGGSEVQLVESGGGLVQPGGSLKLSCAASGFTFNTYAMNWVRQASGKGLEWVGRIRSKYNNYATYYADSVKDRFTISRDDSKSTLYLQMNSLKTEDTAVYYCARHYNFGQSYVSWFAYWGQGTTVTVSS | 6.47 |
| SGN70-sp34.99LH (bispecific antibody, part only; not given: anti-CD70 Fab arm and Fc, not shown: another chain or arm of the molecule; a dimerising Fc or GST) scFv: QAVVTQEPSLTVSPGGTVTLTCRSSTGAVTTSNYANWVQQKPGQAPRGLIGGTNKRAPGVPARFSGSLLGDKAALTLLGAQPEDEAEYYCALWYSNLWVFGQGTKLTVLGGGGSGGGGSGGGGSGGGGSEVQLVESGGGLVQPGGSLKLSCAASGFTFNTYAMNWVRQASGKGLEWVGRIRSKYNNYATYYADSVKDRFTISRDDSKSTLYLQMNSLKTEDTAVYYCARHGNAYQSYVSWFAYWGQGTTVTVSS | 5.09 |
| SGN70-sp34.101HL (bispecific antibody, part only; not given: anti-CD70 Fab arm and Fc, not shown: another chain or arm of the molecule; a dimerising Fc or GST; large carriers) scFv: EVQLVESGGGLVQPGGSLKLSCAASGFTFNTYAMNWVRQASGKGLEWVGRIRSKYNNYATYYADSVKDRFTISRDDSKSTLYLQMNSLKTEDTAVYYCARHGNFGQSAASWFAYWGQGTTVTVSSGGGGSGGGGSGGGGSGGGGSQAVVTQEPSLTVSPGGTVTLTCRSSTGAVTTSNYANWVQQKPGQAPRGLIGGTNKRAPGVPARFSGSLLGDKAALTLLGAQPEDEAEYYCALWYSNLWVFGQGTKLTVL | 6.32 |
